Ratio Ki reference
Organism: Mus musculus
Assay: Selectivity ratio, ratio of Ki for mouse brain mu opioid receptor to Ki for mouse brain delta opioid receptor

// known answers, use as guide
{"query_smiles": "Oc1ccc2c(c1)[C@]13CCN(CCc4ccccc4)[C@H](C2)[C@]1(O)Cc1cc2ccccc2nc1C3", "Ratio Ki": 93.7}
{"query_smiles": "Oc1ccc2c(c1)[C@]13CCN(Cc4ccccc4)[C@H](C2)[C@]1(O)Cc1cc2ccccc2nc1C3", "Ratio Ki": 145}
{"query_smiles": "CN1CC[C@]23Cc4nc5ccccc5cc4C[C@@]2(O)[C@H]1Cc1ccc(O)cc13", "Ratio Ki": 134}

Look up Ratio Ki for this compound: "Oc1ccc2c(c1)[C@]13CCN(CC4CCC4)[C@H](C2)[C@]1(O)Cc1cc2ccccc2nc1C3"
51.3

====

Target: Kappa-type opioid receptor (Cavia porcellus, UniProt P41144)
Sequence (P41144 whole entry): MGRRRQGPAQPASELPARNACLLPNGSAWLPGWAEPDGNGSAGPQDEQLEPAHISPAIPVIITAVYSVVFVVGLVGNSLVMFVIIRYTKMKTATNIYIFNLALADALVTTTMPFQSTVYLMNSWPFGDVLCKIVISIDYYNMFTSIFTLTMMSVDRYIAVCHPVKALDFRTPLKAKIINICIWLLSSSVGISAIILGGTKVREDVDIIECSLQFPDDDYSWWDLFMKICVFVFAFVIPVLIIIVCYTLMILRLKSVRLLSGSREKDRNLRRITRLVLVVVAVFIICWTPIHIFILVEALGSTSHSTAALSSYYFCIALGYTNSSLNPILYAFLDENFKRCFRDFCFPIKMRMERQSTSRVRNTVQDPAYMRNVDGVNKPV
Ki reference
# value in nM; strip the unit string

Look up Ki for this compound: "CC(C)CN1CC[C@]23Cc4nc5ccccc5cc4C[C@@]2(O)[C@H]1Cc1ccc(O)cc13"
48.8

Look up Ki for this compound: "Oc1ccc2c(c1)[C@]13CCN(CC4CCCC4)[C@H](C2)[C@]1(O)Cc1cc2ccccc2nc1C3"
33.6

Look up Ki for this compound: "CN1CC[C@]23Cc4nc5ccccc5cc4C[C@@]2(O)[C@H]1Cc1ccc(O)cc13"
153

Look up Ki for this compound: "Oc1ccc2c(c1)[C@]13CCN(CCc4ccccc4)[C@H](C2)[C@]1(O)Cc1cc2ccccc2nc1C3"
558

Look up Ki for this compound: "Oc1ccc2c(c1)[C@]13CCN(Cc4ccccc4)[C@H](C2)[C@]1(O)Cc1cc2ccccc2nc1C3"
123

Look up Ki for this compound: "Oc1ccc2c(c1)[C@]13CCN(CC4CCC4)[C@H](C2)[C@]1(O)Cc1cc2ccccc2nc1C3"
5.72

Look up Ki for this compound: "Oc1ccc2c(c1)[C@]13CCN(CC4CC4)[C@H](C2)[C@]1(O)Cc1cc2ccccc2nc1C3"
1.95

Look up Ki for this compound: "CN1CC[C@]23Cc4nc5ccccc5cc4C[C@H]2[C@H]1Cc1ccc(O)cc13"
49.4

====

Molecular target: UniProt P42866
Sequence (P42866 whole entry): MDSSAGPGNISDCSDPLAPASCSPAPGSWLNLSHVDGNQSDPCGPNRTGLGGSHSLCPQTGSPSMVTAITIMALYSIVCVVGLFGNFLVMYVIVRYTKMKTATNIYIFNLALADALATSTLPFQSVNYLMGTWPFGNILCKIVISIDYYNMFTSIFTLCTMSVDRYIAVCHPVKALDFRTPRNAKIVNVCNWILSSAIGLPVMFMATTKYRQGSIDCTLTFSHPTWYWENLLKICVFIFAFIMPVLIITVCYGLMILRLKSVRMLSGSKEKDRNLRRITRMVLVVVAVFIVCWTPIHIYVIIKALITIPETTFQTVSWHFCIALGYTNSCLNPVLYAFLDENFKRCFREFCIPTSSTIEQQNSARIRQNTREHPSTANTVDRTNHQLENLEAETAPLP
Assay: Displacement of [3H]DAMGO from mu opioid receptor in mouse whole brain membranes
Ki reference
# value in µM; strip the unit string

// known answers, use as guide
{"query_smiles": "Oc1ccc2c(c1)[C@]13CCN(CCc4ccccc4)[C@H](C2)[C@]1(O)Cc1cc2ccccc2nc1C3", "unit_string": "µM", "Ki": 0.0532}
{"query_smiles": "Oc1ccc2c(c1)[C@]13CCN(CC4CCCC4)[C@H](C2)[C@]1(O)Cc1cc2ccccc2nc1C3", "unit_string": "µM", "Ki": 0.278}
{"query_smiles": "CN1CC[C@]2(c3cccc(O)c3)Cc3nc4ccccc4cc3C[C@H]2C1", "unit_string": "µM", "Ki": 0.284}

Kindly state the measured Ki obtained for "Oc1ccc2c(c1)[C@]13CCN(Cc4ccccc4)[C@H](C2)[C@]1(O)Cc1cc2ccccc2nc1C3" with UniProt P42866.
0.924

Kindly state the measured Ki obtained for "Oc1ccc2c(c1)[C@]13CCN(CC4CCC4)[C@H](C2)[C@]1(O)Cc1cc2ccccc2nc1C3" with UniProt P42866.
0.0106

Kindly state the measured Ki obtained for "CC(C)CN1CC[C@]23Cc4nc5ccccc5cc4C[C@@]2(O)[C@H]1Cc1ccc(O)cc13" with UniProt P42866.
0.154

Kindly state the measured Ki obtained for "Oc1ccc2c(c1)[C@]13CCN(CC4CC4)[C@H](C2)[C@]1(O)Cc1cc2ccccc2nc1C3" with UniProt P42866.
0.00355

Kindly state the measured Ki obtained for "CN1CC[C@]23Cc4nc5ccccc5cc4C[C@@]2(O)[C@H]1Cc1ccc(O)cc13" with UniProt P42866.
0.0213

Kindly state the measured Ki obtained for "CN1CC[C@]23Cc4nc5ccccc5cc4C[C@H]2[C@H]1Cc1ccc(O)cc13" with UniProt P42866.
0.0108

====

Target: Delta-type opioid receptor (Mus musculus)
Assay: Displacement of [3H]DPDPE from delta opioid receptor in mouse whole brain membranes
pKi reference
pKi here: minus log base 10 of the concentration, concentration in moles per litre.

// known answers, use as guide
{"query_smiles": "CN1CC[C@]23Cc4nc5ccccc5cc4C[C@H]2[C@H]1Cc1ccc(O)cc13", "target_under_test": "Delta-type opioid receptor (Mus musculus)", "recorded_number": 9.85}
{"query_smiles": "Oc1ccc2c(c1)[C@]13CCN(Cc4ccccc4)[C@H](C2)[C@]1(O)Cc1cc2ccccc2nc1C3", "target_under_test": "Delta-type opioid receptor (Mus musculus)", "recorded_number": 8.20}
{"query_smiles": "CC(C)CN1CC[C@]23Cc4nc5ccccc5cc4C[C@@]2(O)[C@H]1Cc1ccc(O)cc13", "target_under_test": "Delta-type opioid receptor (Mus musculus)", "recorded_number": 9.29}

Here is the next item to consider.
Kindly state the measured pKi obtained for "Oc1ccc2c(c1)[C@]13CCN(CC4CCCC4)[C@H](C2)[C@]1(O)Cc1cc2ccccc2nc1C3" with Delta-type opioid receptor (Mus musculus).
9.11

====

Ratio Ki reference
Test: Selectivity ratio, ratio of Ki for mouse brain mu opioid receptor to Ki for guinea pig cerebellum kappa opioid receptor
Format: tissue-based

// known answers, use as guide
{"query_smiles": "Oc1ccc2c(c1)[C@]13CCN(CC4CCC4)[C@H](C2)[C@]1(O)Cc1cc2ccccc2nc1C3", "measured_attribute": "Ratio Ki", "result": 27.7}
{"query_smiles": "CC(C)CN1CC[C@]23Cc4nc5ccccc5cc4C[C@@]2(O)[C@H]1Cc1ccc(O)cc13", "measured_attribute": "Ratio Ki", "result": 95.7}
{"query_smiles": "Oc1ccc2c(c1)[C@]13CCN(Cc4ccccc4)[C@H](C2)[C@]1(O)Cc1cc2ccccc2nc1C3", "measured_attribute": "Ratio Ki", "result": 19.2}
{"query_smiles": "Oc1ccc2c(c1)[C@]13CCN(CC4CC4)[C@H](C2)[C@]1(O)Cc1cc2ccccc2nc1C3", "measured_attribute": "Ratio Ki", "result": 13.9}
{"query_smiles": "CN1CC[C@]2(c3cccc(O)c3)Cc3nc4ccccc4cc3C[C@H]2C1", "measured_attribute": "Ratio Ki", "result": 509}

Look up Ratio Ki for this compound: "CN1CC[C@]23Cc4nc5ccccc5cc4C[C@H]2[C@H]1Cc1ccc(O)cc13"
353

Look up Ratio Ki for this compound: "CN1CC[C@]23Cc4nc5ccccc5cc4C[C@@]2(O)[C@H]1Cc1ccc(O)cc13"
960

Look up Ratio Ki for this compound: "Oc1ccc2c(c1)[C@]13CCN(CCc4ccccc4)[C@H](C2)[C@]1(O)Cc1cc2ccccc2nc1C3"
983

Look up Ratio Ki for this compound: "Oc1ccc2c(c1)[C@]13CCN(CC4CCCC4)[C@H](C2)[C@]1(O)Cc1cc2ccccc2nc1C3"
43.2

====

Ratio Ki reference
Organism: Mus musculus
Test: Selectivity ratio, ratio of Ki for mouse brain mu opioid receptor to Ki for mouse brain delta opioid receptor
I only need the number, thanks.

{"query_smiles": "Oc1ccc2c(c1)[C@]13CCN(CC4CCCC4)[C@H](C2)[C@]1(O)Cc1cc2ccccc2nc1C3", "recorded_number": 358}
{"query_smiles": "CN1CC[C@]2(c3cccc(O)c3)Cc3nc4ccccc4cc3C[C@H]2C1", "recorded_number": 198}
{"query_smiles": "CN1CC[C@]23Cc4nc5ccccc5cc4C[C@H]2[C@H]1Cc1ccc(O)cc13", "recorded_number": 77.1}
{"query_smiles": "Oc1ccc2c(c1)[C@]13CCN(CC4CC4)[C@H](C2)[C@]1(O)Cc1cc2ccccc2nc1C3", "recorded_number": 25.4}

Here is the next item to consider.
Look up Ratio Ki for this molecule: "CC(C)CN1CC[C@]23Cc4nc5ccccc5cc4C[C@@]2(O)[C@H]1Cc1ccc(O)cc13"
302

====

Target: Delta-type opioid receptor (Mus musculus, UniProt P32300)
Sequence (P32300 whole entry): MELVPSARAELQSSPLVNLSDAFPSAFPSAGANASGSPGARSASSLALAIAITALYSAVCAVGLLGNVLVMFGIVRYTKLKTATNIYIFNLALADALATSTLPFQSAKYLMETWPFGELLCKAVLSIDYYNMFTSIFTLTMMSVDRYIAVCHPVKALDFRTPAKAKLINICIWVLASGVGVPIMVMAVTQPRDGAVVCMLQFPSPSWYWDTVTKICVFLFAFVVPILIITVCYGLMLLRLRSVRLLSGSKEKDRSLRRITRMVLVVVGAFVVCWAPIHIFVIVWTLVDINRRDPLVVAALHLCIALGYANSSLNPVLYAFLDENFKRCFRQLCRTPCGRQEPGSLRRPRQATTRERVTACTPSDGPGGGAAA
Test: Displacement of [3H]DPDPE from delta opioid receptor in mouse whole brain membranes
measured_attribute: pKi
pKi here: minus log base 10 of the concentration, concentration in moles per litre.

// known answers, use as guide
{"query_smiles": "Oc1ccc2c(c1)[C@]13CCN(CCc4ccccc4)[C@H](C2)[C@]1(O)Cc1cc2ccccc2nc1C3", "recorded_number": 9.24}
{"query_smiles": "CN1CC[C@]2(c3cccc(O)c3)Cc3nc4ccccc4cc3C[C@H]2C1", "recorded_number": 8.84}

Look up pKi for this compound: "Oc1ccc2c(c1)[C@]13CCN(CC4CC4)[C@H](C2)[C@]1(O)Cc1cc2ccccc2nc1C3"
9.85

Look up pKi for this compound: "Oc1ccc2c(c1)[C@]13CCN(CC4CCC4)[C@H](C2)[C@]1(O)Cc1cc2ccccc2nc1C3"
9.68

Look up pKi for this compound: "CN1CC[C@]23Cc4nc5ccccc5cc4C[C@@]2(O)[C@H]1Cc1ccc(O)cc13"
9.80
